# Study Target: human recombinant serotonin (5-Hydroxytryptamine) 5-HT2A receptor (Homo sapiens)
# Construct: expressed in transfected cells; host or cells: CHO-K1 cells
# Sequence (P28223 whole entry): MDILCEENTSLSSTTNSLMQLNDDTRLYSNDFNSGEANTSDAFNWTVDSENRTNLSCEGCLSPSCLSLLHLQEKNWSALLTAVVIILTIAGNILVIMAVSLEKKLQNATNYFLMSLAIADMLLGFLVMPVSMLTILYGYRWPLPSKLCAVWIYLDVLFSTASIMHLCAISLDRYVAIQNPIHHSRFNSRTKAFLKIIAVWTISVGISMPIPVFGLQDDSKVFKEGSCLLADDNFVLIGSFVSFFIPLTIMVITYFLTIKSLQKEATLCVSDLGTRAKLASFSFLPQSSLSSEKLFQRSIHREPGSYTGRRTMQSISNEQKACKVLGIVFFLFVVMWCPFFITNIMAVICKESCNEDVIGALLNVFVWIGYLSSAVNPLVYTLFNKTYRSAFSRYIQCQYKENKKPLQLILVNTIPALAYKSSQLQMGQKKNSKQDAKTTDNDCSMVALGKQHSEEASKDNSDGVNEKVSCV
# Procedure Summary: Serotonin 5-HT2A radioligand binding ([3H]Ketanserin)
# Recorded Conditions: 1 h; read-out: Percent Inhibition of ligand binding Serotonin (1 μM ligand concentration) 5-HT2A
# binarize inhibition at 1 µM: threshold 70% inclusive, high side true, low side false

Answer whether inhibition at 1 µM of `COC(=O)Cn1c2c(c3cc(Cl)ccc31)CCN(C)C2` is greater than or equal to 70%. false

Answer whether inhibition at 1 µM of CCC1c2c(c3cc(Cl)ccc3n2C(=O)Cc2ccc(F)cc2)CCN1C (centres unmarked) is greater than or equal to 70%. true

Answer whether inhibition at 1 µM of COc1ccc(C(O)Cn2c3c(c4cc(C)ccc42)CCN(C)C3)cc1OC (centres unmarked) is greater than or equal to 70%. false

Answer whether inhibition at 1 µM of `C/C(=C\n1c2c(c3cc(C)ccc31)CCN(C)C2)c1ccc(F)cc1` is greater than or equal to 70%. true
